Target: human recombinant PDE5 (Homo sapiens, UniProt O76074)
Assay: Inhibitory effect on cGMP-PDE (one-step assay, 8-[H3]-cGMP)
Settings: in vitro
pIC50: −log10 of the molar value.
pIC50 below 8 gives no (0); pIC50 at or above it gives yes (1).

INSERT INTO assay_data (compound, class) VALUES
  ('O=C(O)C1CCN(C(=O)c2ccn3c2Cc2c([nH]c4ccccc24)C3c2ccc3c(c2)OCO3)CC1 (centres unmarked)', 'yes (1)');

Lookup: Is pIC50 at least 8? Consider O=C(NCc1cccc[n+]1[O-])c1ccn2c1Cc1c([nH]c3ccccc13)C2c1ccc2c(c1)OCO2 (centres unmarked)
Found: yes (1)

Lookup: Is pIC50 at least 8? Consider O=C(NCCc1ccccn1)c1ccn2c1Cc1c([nH]c3ccccc13)C2c1ccc2c(c1)OCO2 (centres unmarked)
Found: yes (1)

Lookup: Is pIC50 at least 8? Consider CCOC(=O)c1ccn2c1Cc1c([nH]c3ccccc13)C2c1ccc2c(c1)OCO2 (centres unmarked)
Found: yes (1)

Lookup: Is pIC50 at least 8? Consider CN(C)CCNC(=O)c1ccn2c1Cc1c([nH]c3ccccc13)C2c1ccc2c(c1)OCO2 (centres unmarked)
Found: no (0)

Measured values drawn from patent US6838456B2 for this set.
